Tested on: K562 cells
Assay: Cell growth inhibitory activity assay (CellTiter-Glo), K562 cells
Type: cell-based
Conditions: Homo sapiens, 72 h, CTG cell viability
pIC50: −log10 of the molar value.
MEASURED_PARAMETER: pIC50

COMPOUND | MEASURED_ON | MEASURED_PARAMETER | REPORTED_RESULT
CCn1cc2c(n1)-c1cc(-c3cc(C(=O)Nc4ccc(OC(F)(F)Cl)cc4)cc4nc5n(c34)[C@H](C)COC5)cnc1C2 | K562 cells | pIC50 | ≥ 8.30
CC(=O)N[C@H]1CCC2c3cc(C(=O)Nc4ccc(OC(F)(F)Cl)cc4)cc(-c4cnccn4)c3N(C(C)C)C21 (stereo partly shown) | K562 cells | pIC50 | 6.00 to 7.30
CC(C)n1cnc2cc(C(=O)Nc3ccc(OC(F)(F)Cl)cc3)cc(-c3cnc4c(c3)-c3nn(-c5ncccn5)cc3C4)c21 | K562 cells | pIC50 | ≥ 8.30
C[C@@H]1COCc2nc3cc(C(=O)Nc4ccc(OC(F)(F)Cl)cc4)cc(-c4cnc5c(c4)-c4nn(-c6ccncc6)cc4C5)c3n21 | K562 cells | pIC50 | ≥ 8.30

###

Molecular target: Ba/F3 BCR-ABL1 T315I (Homo sapiens, UniProt P00519+P11274, T315I)
Construct: BCR (N-terminal fusion partner of the oncoprotein)
Assay: Cell growth inhibitory activity assay (CellTiter-Glo), Ba/F3 BCR-ABL1 T315I cells
Settings: 72 h, CTG cell viability
pIC50: −log10 of the molar value.
The entries below come with measured pIC50 values attached.
MEASURED_PARAMETER: pIC50

COMPOUND | REPORTED_RESULT
O=C(Nc1ccc(OC(F)(F)Cl)cc1)c1cnc(N2CC[C@@H](F)C2)c(-c2cnc3c(c2)-c2nn(-c4nccc(-c5cccnc5)n4)cc2C3)c1 | ≥ 8.30
Cc1ccc(-n2ncc3c2-c2cc(-c4cc(C(=O)Nc5ccc(OC(F)(F)Cl)cc5)cc5nc6n(c45)[C@H](C)COC6)cnc2C3)nn1 | 7.30 to 8.30
[2H]C1([2H])c2cn(-c3ncccn3)nc2-c2cc(-c3cc(C(=O)Nc4ccc(OC(F)(F)Cl)cc4)cc4nc5n(c34)[C@H](C)COC5)cnc21 | ≥ 8.30
O=C(Nc1ccc(OC(F)(F)Cl)cc1)c1cnc(N2CC[C@@H](F)C2)c(-c2cnc3c(c2)-c2nn(-c4ncc(N5CC[C@H](F)C5)cn4)cc2C3)c1 | 7.30 to 8.30
C[C@@H]1COCc2nc3cc(C(=O)Nc4ccc(OC(F)(F)Cl)cc4)cc(-c4cnc5c(c4)-c4nn(-c6ncc(F)cn6)cc4C5)c3n21 | ≥ 8.30
C[C@@H]1COCc2nc3cc(C(=O)Nc4ccc(OC(F)(F)Cl)cc4)cc(-c4cnc5c(c4)-c4nn(C(=O)C6CC6)cc4C5)c3n21 | ≥ 8.30
COc1cccc(-c2ccnc(-n3cc4c(n3)-c3cc(-c5cc(C(=O)Nc6ccc(OC(F)(F)Cl)cc6)cc6nc7n(c56)[C@H](C)COC7)cnc3C4)n2)c1F | ≥ 8.30
C[C@@H]1COCc2nc3cc(C(=O)Nc4ccc(OC(F)(F)Cl)cc4)cc(-c4cnc5c(c4)-c4nn(-c6nccc(-c7ccccc7)n6)cc4C5)c3n21 | ≥ 8.30
C[C@@H]1COCc2nc3cc(C(=O)Nc4ccc(OC(F)(F)Cl)cc4)cc(-c4cnc5c(c4)-c4nn(-c6ncccn6)cc4C5)c3n21 | ≥ 8.30
C[C@@H]1COCc2nc3cc(C(=O)Nc4ccc(OC(F)(F)Cl)cc4)cc(-c4cnc5c(c4)-c4nn(CC(F)(F)F)cc4C5)c3n21 | ≥ 8.30
CC(=O)N[C@@H]1CCC2c3cc(C(=O)Nc4ccc(OC(F)(F)Cl)cc4)cc(-c4cnccn4)c3N(C(C)C)C21 (stereo partly shown) | 7.30 to 8.30
C[C@@H]1COCc2nc3cc(C(=O)Nc4ccc(OC(F)(F)Cl)cc4)cc(-c4ccc5c(c4)-c4n[nH]cc4C5)c3n21 | < 6.00
CC(C)c1cnc(-n2cc3c(n2)-c2cc(-c4cc(C(=O)Nc5ccc(OC(F)(F)Cl)cc5)cc5nc6n(c45)[C@H](C)COC6)cnc2C3)nc1 | ≥ 8.30

###

Target: Ba/F3 BCR-ABL1 A424T (Homo sapiens, UniProt P00519+P11274, A424T)
Construct: BCR (N-terminal fusion partner of the oncoprotein)
Assay: Cell growth inhibitory activity assay (CellTiter-Glo), Ba/F3 BCR-ABL1 A424T cells
Details: 72 h, CTG cell viability
pIC50: −log10 of the molar value.
Quick list: pIC50 per entry.

STRUCTURE | pIC50
C[C@@H]1COCc2nc3cc(C(=O)Nc4ccc(OC(F)(F)Cl)cc4)cc(-c4cnc5c(c4)-c4nn(C6CC6)cc4C5)c3n21 | 7.30 to 8.30
C[C@@H]1COCc2nc3cc(C(=O)Nc4ccc(OC(F)(F)Cl)cc4)cc(-c4cnc5c(c4)-c4nn(CC(F)(F)F)cc4C5)c3n21 | ≥ 8.30
CC(C)n1cnc2cc(C(=O)Nc3ccc(OC(F)(F)Cl)cc3)cc(-c3cnc4c(c3)C(=O)N(C)C4)c21 | 6.00 to 7.30
C[C@@H]1COCc2nc3cc(C(=O)Nc4ccc(OC(F)(F)Cl)cc4)cc(-c4cnc5c(c4)-c4c(cnn4-c4nccc(C#N)n4)C5)c3n21 | 6.00 to 7.30
C[C@@H]1COCc2nc3cc(C(=O)Nc4ccc(OC(F)(F)Cl)cc4)cc(-c4cnc5c(c4)-c4nn(-c6cnccn6)cc4C5)c3n21 | 7.30 to 8.30
CC(C)n1cc2c(n1)-c1cc(-c3cc(C(=O)Nc4ccc(OC(F)(F)Cl)cc4)cc4nc5n(c34)[C@H](C)COC5)cnc1C2 | 7.30 to 8.30
[2H]C([2H])([2H])N1Cc2ncc(-c3cc(C(=O)Nc4ccc(OC(F)(F)Cl)cc4)cc4nc5n(c34)[C@H](C)COC5)cc2C1=O | 7.30 to 8.30
CCn1cc2c(n1)-c1cc(-c3cc(C(=O)Nc4ccc(OC(F)(F)Cl)cc4)cc4nc5n(c34)[C@H](C)COC5)cnc1C2 | 7.30 to 8.30
C[C@@H]1COCc2nc3cc(C(=O)Nc4ccc(OC(F)(F)Cl)cc4)cc(-c4cnc5c(c4)-c4nn(C6COC6)cc4C5)c3n21 | 7.30 to 8.30
C[C@@H]1COCc2nc3cc(C(=O)Nc4ccc(OC(F)(F)Cl)cc4)cc(-c4cnc5c(c4)-c4nn(S(C)(=O)=O)cc4C5)c3n21 | 6.00 to 7.30
CN1Cc2ncc(-c3cc(C(=O)Nc4ccc(OC(F)(F)Cl)cc4)cc4c3C(C)(C)C(=O)N4)cc2C1=O | < 6.00
C[C@@H]1COCc2nc3cc(C(=O)Nc4ccc(OC(F)(F)Cl)cc4)cc(-c4cnc5c(c4)-c4nn(-c6ncccn6)cc4C5)c3n21 | ≥ 8.30
C[C@@H]1COCc2nc3cc(C(=O)Nc4ccc(OC(F)(F)Cl)cc4)cc(-c4cnc5c(c4)-c4nn(-c6nccc(C#N)n6)cc4C5)c3n21 | 7.30 to 8.30

###

Biological target: Ba/F3 BCR-ABL1 T315I (Homo sapiens, UniProt P00519+P11274, T315I)
Construct: BCR (N-terminal fusion partner of the oncoprotein)
Experiment: Cell growth inhibitory activity assay (CellTiter-Glo), Ba/F3 BCR-ABL1 T315I cells
Settings: 72 h, CTG cell viability
pIC50: −log10 of the molar value.
pIC50 listing for selected molecules.
MEASURED_PARAMETER: pIC50

MOLECULE | MEASURED_PARAMETER | REPORTED_RESULT
CN1Cc2ncc(-c3cc(C(=O)Nc4ccc(OC(F)(F)Cl)cc4)cc4c3C3(CCCCC3)C(=O)N4)cc2C1=O | pIC50 | 7.30 to 8.30
C[C@@H]1COCc2nc3cc(C(=O)Nc4ccc(OC(F)(F)Cl)cc4)cc(-c4cnc5c(c4)-c4nn(-c6ncccn6)cc4C5F)c3n21 (stereo partly shown) | pIC50 | ≥ 8.30
C[C@@H]1COCc2nc3cc(C(=O)Nc4ccc(OC(F)(F)Cl)cc4)cc(-c4cnc5c(c4)C(=O)CC5)c3n21 | pIC50 | 7.30 to 8.30
Cc1cc(C(F)(F)F)nc(-n2cc3c(n2)-c2cc(-c4cc(C(=O)Nc5ccc(OC(F)(F)Cl)cc5)cc5nc6n(c45)[C@H](C)COC6)cnc2C3)n1 | pIC50 | ≥ 8.30
C[C@@H]1COCc2nc3cc(C(=O)Nc4ccc(OC(F)(F)Cl)cc4)cc(-c4cnc5c(c4)-c4nn(C6CC6)cc4C5)c3n21 | pIC50 | ≥ 8.30
O=C(Nc1ccc(OC(F)(F)Cl)cc1)c1cnc(N2CC[C@H](F)C2)c(-c2cnc3c(c2)-c2nn(-c4ncc(F)cn4)cc2C3)c1 | pIC50 | ≥ 8.30
COc1cnc(-n2cc3c(n2)-c2cc(-c4cc(C(=O)Nc5ccc(OC(F)(F)Cl)cc5)cnc4N4CC[C@@H](F)C4)cnc2C3)nc1 | pIC50 | ≥ 8.30
C[C@@H]1CCS(=O)(=O)c2nc3cc(C(=O)Nc4ccc(OC(F)(F)Cl)cc4)cc(-c4cnc5c(c4)C(=O)N(C)C5)c3n21 | pIC50 | 7.30 to 8.30
O=C(Nc1ccc(OC(F)(F)Cl)cc1)c1cnc(N2CC[C@@H](F)C2)c(-c2cnc3c(c2)-c2nn(-c4ncc(F)cn4)cc2C3F)c1 (stereo partly shown) | pIC50 | ≥ 8.30
O=C(Nc1ccc(OC(F)(F)Cl)cc1)c1cc2c(c(-c3cnc4c(c3)-c3nn(-c5nccc(-c6ccc(F)nc6)n5)cc3C4)c1)C1(CCCCC1)C(=O)N2 | pIC50 | ≥ 8.30
C[C@@H]1COCc2nc3cc(C(=O)Nc4ccc(OC(F)(F)Cl)cc4)cc(-c4ccc5c(c4)C(=O)N(C)C5)c3n21 | pIC50 | 7.30 to 8.30
O=C(Nc1ccc(OC(F)(F)Cl)cc1)c1cnc(N2CC[C@@H](F)C2)c(-c2cnc3c(c2)-c2c(cnn2-c2ncc(F)cn2)C3F)c1 (stereo partly shown) | pIC50 | 6.00 to 7.30
N#Cc1ccnc(-n2cc3c(n2)-c2cc(-c4cc(C(=O)Nc5ccc(OC(F)(F)Cl)cc5)cnc4N4CC[C@@H](F)C4)cnc2C3)n1 | pIC50 | ≥ 8.30

Data credit: patent EP4768484A1
